Assay: In vitro human liver microsomal stability assay
Format: in vitro ADME
Conditions: human liver microsomes 2 mg per mL protein, NADPH-generating system, 1 uM test compound, 37 °C, 0-240 min; relative to non-deuterated d0 (Example 1)
Method: In Vitro Liver Microsomal Stability Assay Human liver microsomal stability assays were conducted at 2 mg per mL liver microsome protein with an NADPH-generating system consisting of NADP (1 mM, pH 7.4), glucose 6-phosphate (5 mM, pH 7.4) and glucose 6-phosphate dehydrogenase (I unit/mL). […] Supernatant fractions were analyzed by LC-MS/MS to determine the percent remaining and estimate the degradation half-life of the test compounds.
assay-endpoint: Clearance % change over d0
# include the unit after the value

[2H]C([2H])(O)C(C)(C)c1cc2cc(NC(=O)C3(c4ccc5c(c4)OC(F)(F)O5)CC3)c(F)cc2n1C[C@@]([2H])(O)C([2H])([2H])O ... −71.4%
[2H]C([2H])(O)C(C)(C)c1cc2cc(NC(=O)C3(c4ccc5c(c4)OC(F)(F)O5)C([2H])([2H])C3([2H])[2H])c(F)cc2n1C[C@@H](O)CO ... −73.8%
[2H]C([2H])([2H])C(CO)(c1cc2cc(NC(=O)C3(c4ccc5c(c4)OC(F)(F)O5)CC3)c(F)cc2n1C[C@@H](O)CO)C([2H])([2H])[2H] ... −11.9%

[in] Specify measured Clearance % change over d0 for [2H]C([2H])([2H])C(CO)(c1cc2cc(NC(=O)C3(c4ccc5c(c4)OC(F)(F)O5)C([2H])([2H])C3([2H])[2H])c(F)cc2n1C[C@@H](O)CO)C([2H])([2H])[2H] .
[out] 4.8%

[in] Specify measured Clearance % change over d0 for [2H]C([2H])(O)C(C)(C)c1cc2cc(NC(=O)C3(c4ccc5c(c4)OC(F)(F)O5)CC3)c(F)cc2n1C[C@@H](O)CO .
[out] −66.7%

###

assay: In vitro human liver microsomal stability assay; format: in vitro ADME; conditions: human liver microsomes 2 mg per mL protein, NADPH-generating system, 1 uM test compound, 37 °C, 0-240 min; relative to non-deuterated d0 (Example 1)
assay-endpoint: Clearance % change over d0
# include the unit after the value

Look over these answered cases.
CC(C)(CO)c1cc2cc(NC(=O)C3(c4ccc5c(c4)OC(F)(F)O5)CC3)c(F)cc2n1C[C@@H](O)CO [Example 1, reference compound] ... 0.0%
[2H]C([2H])(O)[C@]([2H])(O)Cn1c(C(C)(C)CO)cc2cc(NC(=O)C3(c4ccc5c(c4)OC(F)(F)O5)CC3)c(F)cc21 ... −4.8%

Here is another compound to look at.
[in] Specify measured Clearance % change over d0 for [2H]C([2H])(O)[C@H](O)Cn1c(C(C)(C)CO)cc2cc(NC(=O)C3(c4ccc5c(c4)OC(F)(F)O5)CC3)c(F)cc21 .
[out] −4.8%

###

This section presents molecules with their documented half-life % change over d0 values.
experiment: In vitro human liver microsomal stability assay; type: in vitro ADME; conditions: human liver microsomes 2 mg per mL protein, NADPH-generating system, 1 uM test compound, 37 °C, 0-240 min; degradation half-life relative to non-deuterated d0 (Example 1)
Quick reminder: number only, in %, skip the unit.

Look over these answered cases.
[2H]C([2H])(O)[C@H](O)Cn1c(C(C)(C)CO)cc2cc(NC(=O)C3(c4ccc5c(c4)OC(F)(F)O5)CC3)c(F)cc21 ... 4.8
CC(C)(CO)c1cc2cc(NC(=O)C3(c4ccc5c(c4)OC(F)(F)O5)CC3)c(F)cc2n1C[C@@H](O)CO [Example 1, reference compound] ... 0.0

[in] Specify measured half-life % change over d0 for [2H]C([2H])([2H])C(CO)(c1cc2cc(NC(=O)C3(c4ccc5c(c4)OC(F)(F)O5)C([2H])([2H])C3([2H])[2H])c(F)cc2n1C[C@@H](O)CO)C([2H])([2H])[2H] .
[out] −4.2

[in] Specify measured half-life % change over d0 for [2H]C([2H])([2H])C(CO)(c1cc2cc(NC(=O)C3(c4ccc5c(c4)OC(F)(F)O5)CC3)c(F)cc2n1C[C@@H](O)CO)C([2H])([2H])[2H] .
[out] 13.3

[in] Specify measured half-life % change over d0 for [2H]C([2H])(O)C(C)(C)c1cc2cc(NC(=O)C3(c4ccc5c(c4)OC(F)(F)O5)CC3)c(F)cc2n1C[C@@H](O)CO .
[out] 200.0

[in] Specify measured half-life % change over d0 for [2H]C([2H])(O)C(C)(C)c1cc2cc(NC(=O)C3(c4ccc5c(c4)OC(F)(F)O5)CC3)c(F)cc2n1C[C@@]([2H])(O)C([2H])([2H])O .
[out] 250.3

[in] Specify measured half-life % change over d0 for [2H]C([2H])(O)C(C)(C)c1cc2cc(NC(=O)C3(c4ccc5c(c4)OC(F)(F)O5)C([2H])([2H])C3([2H])[2H])c(F)cc2n1C[C@@H](O)CO .
[out] 281.8

[in] Specify measured half-life % change over d0 for [2H]C([2H])(O)[C@]([2H])(O)Cn1c(C(C)(C)CO)cc2cc(NC(=O)C3(c4ccc5c(c4)OC(F)(F)O5)CC3)c(F)cc21 .
[out] 4.8
